Tested on: ACHN
Assay: NCI tumour cell line growth inhibition, 48 h
The source made the active and inactive calls. Rule as the data show it: active = GI50 up to about 1.1 µM and inactive = higher.
I'd appreciate it if you could supply GI50 values for the items below.

// C1=CN2C[n+]3ccc4ccccc4c3N=C2c2ccccc21 : GI50 value = 23.3 µM (inactive)

So, O=C(O)CNC(=O)c1ccc2cc(C(=O)N3CC(CCl)c4ccc([N+](=O)[O-])cc43)[nH]c2c1 (stereo not given) ? Its GI50 was > 100 µM (inactive)

Short answer for COc1cc2c(cc1OC)C(=O)Cc1ccc3c(c1CNCC2)OCO3 : GI50 was > 100 µM (inactive)

GI50 reported for this compound CC(=O)Nc1c(C)cc2c(nc3n2CCC3OC(C)=O)c1[N+](=O)[O-] (stereo not given) : > 100 µM (inactive)

So for CC1C(c2ccc(N(C)C)cc2)c2cc3c(cc2OC1N1CCCC1)OCO3 (stereo not given) , the logged GI50 turned out to be > 72.9 µM (inactive)

* * *

Test system: EKVX
Assay: NCI tumour cell line growth inhibition, 48 h
Active and inactive are the calls of the source. No stated cut-off is given here; in the data, active = GI50 up to about 1.1 µM and inactive = higher.
Parameter measured: GI50

Lookup result for COc1ccc(CC2Cc3ccccc3CCN2)cc1OC (stereo not given) ; measured GI50: 26.2 µM (inactive)

// field: GI50; key: CN1CC=C(c2c(N)nc(N)[nH]c2=O)CC1 ; value = > 100 µM (inactive)

Noted for N=C(N)N/N=C\c1c(-c2ccccc2)nc2sccn12 : its GI50 reads 14.5 µM (inactive)

Recorded result, O=[N+]([O-])/C=C/c1cn(CCCCCn2cc(/C=C/[N+](=O)[O-])c3ccccc32)c2ccccc12 , GI50: 11.6 µM (inactive)

compound O=c1o[nH]/c(=N/c2ccccc2)n1-c1ccccc1 , GI50 observed: > 100 µM (inactive)

compound O=C1/C(=C/c2ccc(Cl)cc2)N=C(c2ccccc2)N1/N=C/c1ccccc1O , GI50 observed: 4.66 µM (inactive)

The reported value for O=C(O)CNC(=O)c1ccc2cc(C(=O)N3CC(CCl)c4ccc([N+](=O)[O-])cc43)[nH]c2c1 (stereo not given) in terms of GI50 is > 100 µM (inactive)

Lab book: GI50 of COC1/C=C\C=C(/C)C(=O)NC2=CC(=O)C=C(C2=O)C(OC)C(C)CC(OC)C(OC)C(C)/C=C(/C)C1OC(N)=O (stereo not given) noted as 1.97 µM (inactive)

get_value(item= CCC1=C(C(C)=O)[C@@H]2CCCCC[C@@H](C(=O)OC)C2C1=O (stereo not given in full) , readout=GI50) returns > 100 µM (inactive)

Noted for O=C1C(S(=O)(=O)c2ccccc2)=C(CS(=O)(=O)c2ccccc2)[C@@H](OCc2ccccc2)[C@@H]1OCc1ccccc1 : its GI50 reads 27.2 µM (inactive)

Form: compound = CC(C)[C@@H](C)CC[C@@H](C)C1CC=C2[C@@H]3CCC4C[C@@H](O[Si](C)(C)C(C)(C)C)CC[C@]4(C)C3CC[C@@]21C (stereo not given in full) ; GI50 = > 100 µM (inactive)

Note to self: GI50 recorded for CN(C)c1ccc(/C=C/C(=O)C(C)(C)C)cc1Br was 44.4 µM (inactive)

Just so you know, measured GI50 for Oc1c(Br)cc(CN(Cc2cc(Br)c(O)c(Br)c2)C2CCCCC2)cc1Br came out at > 100 µM (inactive)

Record summary for C1=CN2C[n+]3ccc4ccccc4c3N=C2c2ccccc21 : reported GI50 = 7.62 µM (inactive)

Recorded result, O=C(CN1CCCC1)Nc1ccc2c(c1)C1Oc3ccccc3CC1CO2 (stereo not given) , GI50: 69.3 µM (inactive)

Recorded result, NC1=NN(c2ccccc2)C(=O)C1C(=O)C(=O)Nc1ccc(Cl)cc1 (stereo not given) , GI50: > 100 µM (inactive)

// recorded GI50 for O=C1C(OC(=O)c2ccccc2)=C(c2ccc(O)cc2)C(=O)C(OC(=O)c2ccccc2)=C1c1ccc(O)cc1 : > 100 µM (inactive)

// recorded GI50 for CCOC(=O)C(CC(C)C)NC(=O)C(Cc1ccc(N(CCCl)CCCl)cc1)NC(C)=O (stereo not given) : 11.1 µM (inactive)

Measured GI50 of C#CCOC(=O)[C@@H](C)c1ccc2cc(OC)ccc2c1 : 66.2 µM (inactive)

GI50 reported for this compound COc1ccccc1/C=C1/Sc2scc(CC(=O)Nc3ccccc3)[n+]2C1=O : 30.9 µM (inactive)

* * *

System: A498
Assay: NCI tumour cell line growth inhibition, 48 h
The source made the active and inactive calls. Cut-off read from the data, not from the text of the source: active = GI50 up to about 1.1 µM and inactive = higher.
Classes to choose from: 1 for active, 0 for inactive

Req: What outcome does the record of this test show for CC(C)[C@@H](C)CC[C@@H](C)C1CC=C2[C@@H]3CCC4C[C@@H](O[Si](C)(C)C(C)(C)C)CC[C@]4(C)C3CC[C@@]21C (some centres not stated) ?
Resp: 0

Req: Recorded test call requested for O=C1c2c(ccc3c2CCCC3)CC1Cc1ccc2c(c1)CCCC2 (configuration not stated)
Resp: 0

Req: # outcome recorded in this test, key = CCOC(=O)c1c(NC(=S)Nc2ccc(C)cc2)sc2c1CCN(C)C2
Resp: 0

Req: So what was the verdict on CC(C)(C)OC(=O)N1C(C2=COc3ccccc3O2)=COc2cccnc21 in this test?
Resp: 0

Req: What classification did Cc1ccc(N2C(=O)C(=CN)C(=O)N(c3ccc(C)cc3)C2=O)cc1 end up with in this test?
Resp: 0

Req: Dear colleague, could you share the recorded outcome for C=C(CC[C@@H](C)[C@H]1CC[C@@]2(C)C3=C(CC[C@]12C)[C@@]1(C)CC[C@H](O)[C@@H](C)C1CC3)C(C)C (some centres not stated) when you have a moment?
Resp: 0

Req: Could you check what this test reported for COc1ccc2c(NCCCCCCNc3c4ccccc4nc4cc(OC)ccc34)c3ccccc3nc2c1 ?
Resp: 1

Req: # fetch the recorded call for CCOC1=C/C(=N\Nc2ccc([N+](=O)[O-])cc2)CCC1 here
Resp: 0

Req: Could you kindly confirm the outcome this assay logged for C/C(=C\CNc1ncnc2[nH]c(Cl)nc12)CO ?
Resp: 0

Req: How did this test come out for CN(C)CCNC(=O)c1cccc2c1nc(-c1ccncc1)c1ccccc12 ?
Resp: 0

Req: Call for entry CC1=CC(=O)c2ccccc2C1=O :
Resp: 0

Req: Fill in: this test's call for C=CCCn1nc(-c2ccccc2)oc1=O is ___
Resp: 0

Req: # fetch the recorded call for COc1ccccc1/N=N/c1c(-c2ccccc2)nn(C(=O)CC(=O)Nc2ccccc2Cl)c1-c1ccccc1 here
Resp: 0

Req: What call does the record list for C/C(=N/CC(=O)O)c1ccccc1 ?
Resp: 0

Req: # outcome recorded in this test, key = N#CC1=C(N)n2c(s/c(=C\c3ccc(Cl)cc3)c2=O)=C(c2nc3ccccc3[nH]2)C1c1ccc(Cl)cc1 (configuration not stated)
Resp: 0

Req: Hey, what did the test say about CO[C@@]12C[C@@H](C)C3=CCC(C)=C3CC1=C(C)C(=O)O2 ?
Resp: 0

Req: Could you kindly confirm the outcome this assay logged for COc1ccc(-n2c(=O)n(C)c(=O)n2-c2c(C)c(C)c(C)c(C)c2C)cc1 ?
Resp: 0

Req: Tell me the assay call for CCCCON1C[C@@H](O)C(O)[C@@H](O)C1 (some centres not stated) please.
Resp: 0

Req: Please let me know the test result on file for Cc1ccc(/C=C2\Cc3cccc(C)c3C2=O)c(C(=O)O)c1 .
Resp: 0

Req: Record lookup: outcome of this test for C[C@H](CCC(=O)O)[C@H]1CC[C@H]2[C@@H]3[C@H](O)C[C@@H]4C[C@H](O)CC[C@]4(C)[C@H]3C[C@H](O)[C@]12C ?
Resp: 0

Req: Could you kindly confirm the outcome this assay logged for CC(C)c1cccc2sc(NC(=O)C(=O)C(C#N)c3cccc4ccccc34)nc12 (configuration not stated) ?
Resp: 0

Req: Just curious, what result did O=c1o[nH]/c(=N/c2ccccc2)n1-c1ccccc1 get here?
Resp: 0

* * *

Tested on: MDA-MB-435
Assay: NCI tumour cell line growth inhibition, 48 h
The source made the active and inactive calls. No stated cut-off is given here; in the data, active = GI50 up to about 1.1 µM and inactive = higher.
Parameter measured: GI50

Given item O=c1c2cc(I)ccc2nc(-c2cccs2)n1/N=C/c1ccccc1 , the value recorded as its GI50 is > 100 µM (inactive)

Documented GI50 of CCOC(CNCCC(=O)OC)OCC : > 10 µM (inactive)

// field: GI50; key: CC(C)(C)OC(=O)N1CCC23CCCC2C(=O)CC=C13 (stereo not drawn) ; value = > 100 µM (inactive)

Note to self: GI50 recorded for COC(=O)/C=C/c1cnc2c(c1)oc(=O)n2CCc1ccccn1 was 20.8 µM (inactive)

Briefly, GI50 measured for CCCCc1ccc(Nc2nc(Cl)c3[nH]cnc3n2)cc1 : 16.8 µM (inactive)

The reported GI50 of the compound CC1(C)C(OC(=O)c2ccccc2)C[C@]23CCC[C@](C)(C[C@@H](O)C12)C3 (stereo partly drawn) was 18 µM (inactive)

Recorded GI50 (compound O=C1NC(c2ccccc2)C1N(Cc1ccccc1)Cc1ccccc1 (stereo not drawn) ): > 100 µM (inactive)

Record COc1ccc(CC2Cc3ccccc3CCN2)cc1OC (stereo not drawn) , field GI50: > 50 µM (inactive)
